- Test target: MOR-1 (Mus musculus, UniProt P42866)
- Construct: expressed in transfected cells; host or cells: CHO
- Sequence (P42866 whole entry): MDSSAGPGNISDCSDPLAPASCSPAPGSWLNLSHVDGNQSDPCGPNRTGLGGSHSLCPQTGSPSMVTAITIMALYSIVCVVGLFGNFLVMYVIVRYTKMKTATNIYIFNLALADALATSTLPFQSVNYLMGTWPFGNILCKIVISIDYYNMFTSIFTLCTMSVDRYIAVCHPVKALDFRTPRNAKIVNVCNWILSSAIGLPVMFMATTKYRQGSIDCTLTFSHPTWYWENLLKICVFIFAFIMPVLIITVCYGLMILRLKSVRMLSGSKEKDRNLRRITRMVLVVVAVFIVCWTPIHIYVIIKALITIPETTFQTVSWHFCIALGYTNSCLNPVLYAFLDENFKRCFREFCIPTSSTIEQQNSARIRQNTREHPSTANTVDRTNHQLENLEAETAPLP
- Method notes: [35S]GTPγS functional assay, MOR-1 transfected cell membranes
- Format: biochemical
- Experimental setup: agonist stimulation of [35S]GTPγS binding; read-out: MOR-1 EC50
EC50 under 4 nM gets Criterion met, anything at or over 4 nM gets Criterion not met.

# example entries with known answers
[
  {
    "Compound": "CC[C@@H]1CN2CC[C@]3(Nc4cccc(O)c4C3=O)C2C[C@@H]1/C(=C\\OC)C(=O)OC (stereo partly drawn)",
    "Qualitative label": "Criterion met"
  },
  {
    "Compound": "CC[C@@H]1CN2CCC3(Nc4c(-c5ccoc5)ccc(OC)c4C3=O)C2C[C@@H]1/C(=C\\OC)C(=O)OC (stereo partly drawn)",
    "Qualitative label": "Criterion not met"
  },
  {
    "Compound": "CC[C@@H]1CN2CC[C@@]3(O)C(=Nc4ccccc43)[C@@H]2C[C@@H]1/C(=C\\OC)C(=O)OC",
    "Qualitative label": "Criterion not met"
  }
]

Please check: EC50 for CC[C@@H]1CN2CC[C@]3(Nc4cccc(-c5ccccc5)c4C3=O)C2C[C@@H]1/C(=C\OC)C(=O)OC (stereo partly drawn) , strictly under 4 nM or not?
Criterion met

Please check: EC50 for CC[C@@H]1CN2CC[C@]3(Nc4cccc(-c5ccoc5)c4C3=O)C2C[C@@H]1/C(=C\OC)C(=O)OC (stereo partly drawn) , strictly under 4 nM or not?
Criterion met

Please check: EC50 for CC[C@@H]1CN2CC[C@]3(Nc4ccccc4C3=O)C2C[C@@H]1/C(=C\OC)C(=O)OC (stereo partly drawn) , strictly under 4 nM or not?
Criterion met

Please check: EC50 for CC[C@@H]1CN2CC[C@]3(Nc4cccc(C#N)c4C3=O)C2C[C@@H]1/C(=C\OC)C(=O)OC (stereo partly drawn) , strictly under 4 nM or not?
Criterion met

Please check: EC50 for CC[C@@H]1CN2CCc3c([nH]c4cccc(O)c34)[C@@H]2C[C@@H]1/C(=C\OC)C(=O)OC , strictly under 4 nM or not?
Criterion not met

###

- Test target: DOR-1 (Mus musculus, UniProt P32300)
- Construct: expressed in transfected cells; host or cells: CHO
- Sequence (P32300 whole entry): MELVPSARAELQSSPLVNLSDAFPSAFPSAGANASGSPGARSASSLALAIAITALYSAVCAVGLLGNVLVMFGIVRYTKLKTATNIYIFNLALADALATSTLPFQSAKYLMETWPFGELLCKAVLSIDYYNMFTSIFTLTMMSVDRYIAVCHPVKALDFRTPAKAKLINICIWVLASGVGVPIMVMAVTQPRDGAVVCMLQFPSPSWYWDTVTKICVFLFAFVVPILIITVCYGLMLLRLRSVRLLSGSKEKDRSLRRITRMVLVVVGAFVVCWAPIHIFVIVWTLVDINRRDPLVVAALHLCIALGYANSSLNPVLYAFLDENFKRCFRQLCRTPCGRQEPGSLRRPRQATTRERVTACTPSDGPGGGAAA
- Method notes: [35S]GTPγS functional assay, DOR-1 transfected cell membranes
- Type: biochemical
- Experimental setup: antagonism of 100 nM DPDPE; read-out: DOR-1 IC50
IC50 under 200 nM gets class 1, anything at or over 200 nM gets class 0.

# example entries with known answers
[
  {
    "Compound": "CC[C@@H]1CN2CC[C@]3(Nc4ccccc4C3=O)C2C[C@@H]1/C(=C\\OC)C(=O)OC (some centres unmarked) [VM1508]",
    "Test target": "DOR-1 (Mus musculus, UniProt P32300)",
    "Qualitative label": "class 1"
  },
  {
    "Compound": "CC[C@@H]1CN2CC[C@]3(Nc4cccc(O)c4C3=O)C2C[C@@H]1/C(=C\\OC)C(=O)OC (some centres unmarked) [VM1507]",
    "Test target": "DOR-1 (Mus musculus, UniProt P32300)",
    "Qualitative label": "class 0"
  }
]

Please check: IC50 for CC[C@@H]1CN2CC[C@]3(Nc4cccc(C#N)c4C3=O)C2C[C@@H]1/C(=C\OC)C(=O)OC (some centres unmarked) [VM1509] , strictly under 200 nM or not?
class 1

Please check: IC50 for CC[C@@H]1CN2CC[C@]3(Nc4cccc(-c5ccoc5)c4C3=O)C2C[C@@H]1/C(=C\OC)C(=O)OC (some centres unmarked) [VM1512] , strictly under 200 nM or not?
class 1

Please check: IC50 for Oc1ccc2c3c1O[C@H]1c4[nH]c5ccccc5c4C[C@@]4(O)[C@@H](C2)N(CC2CC2)CC[C@]314 [NTI, Naltrindole, reference compound] , strictly under 200 nM or not?
class 1

The values you see were collected from patent US12617790B2.
